assay_summary: Solubility of test compounds in 50 mM phosphate buffer pH 7.4 by HPLC
run_conditions: 50 mM potassium phosphate buffer pH 7.40, 16 hr at ~25° C., incubation concentration 1600 μM
measured_property: Measured Solubility in pH 7.4 phosphate buffer (μM)

smiles_data	result_value
COC(=O)N(CC1(N)CC1)C1(c2ccc(F)c(C(F)(F)F)c2)CC1	1600
COC(=O)N(C[C@H]1COCCN1)C1(c2ccc(F)c(C(F)(F)F)c2)CC1	1500
CCOC(=O)N(C[C@@H]1CCCN1C)C1(c2ccc(F)c(C(F)(F)F)c2)CC1	1500
COC(=O)N(CCN(C)C)C1(c2ccc(F)c(C(F)(F)F)c2)CC1	1600
COC(=O)N(C[C@@H]1CCCN1C)C1(c2ccc(F)c(C(F)(F)F)c2)CC1	1600
COC(=O)N(CC(C)(C)N)C1(c2cc(C(F)(F)F)c(F)cn2)CC1	1500
CS(=O)(=O)N(C[C@@H]1CCCN1)C1(c2ccc(F)c(C(F)(F)F)c2)CC1	800

---

Item-by-item account of Measured Solubility in pH 7.4 phosphate buffer (mg/ml)
assay_summary: Solubility of test compounds in 50 mM phosphate buffer pH 7.4 by HPLC
run_conditions: 50 mM potassium phosphate buffer pH 7.40, 16 hr at ~25° C., incubation concentration 1600 μM
measured_property: Measured Solubility in pH 7.4 phosphate buffer (mg/ml)

smiles_data	result_value
COC(=O)N(CC1(N)CC1)C1(c2ccc(F)c(C(F)(F)F)c2)CC1	0.5599 mg/ml
COC(=O)N(C[C@H]1COCCN1)C1(c2ccc(F)c(C(F)(F)F)c2)CC1	0.6118 mg/ml
COC(=O)N(CCN(C)C)C1(c2ccc(F)c(C(F)(F)F)c2)CC1	0.5409 mg/ml
COC(=O)N(C[C@@H]1CCCN1C)C1(c2ccc(F)c(C(F)(F)F)c2)CC1	0.5918 mg/ml
CCOC(=O)N(C[C@@H]1CCCN1C)C1(c2ccc(F)c(C(F)(F)F)c2)CC1	0.5679 mg/ml
COC(=O)N(CC(C)(C)N)C1(c2cc(C(F)(F)F)c(F)cn2)CC1	0.5636 mg/ml
CS(=O)(=O)N(C[C@@H]1CCCN1)C1(c2ccc(F)c(C(F)(F)F)c2)CC1	0.3218 mg/ml

---

system_tested: erythrocyte KCa3.1 channels (Homo sapiens (Human), UniProt O15554)
assay_summary: Erythrocyte KCa3.1 assay
Assay type: cell-based
run_conditions: human erythrocytes, A23187-activated KCa3.1; read-out: RBC K (in vitro) Human IC50 (μM) Potency category

smiles_data	IC50
CC(C)(N)CNC1(c2cccc(C(F)(F)F)c2)CCC1	< 0.3 µM
CCOC(=O)N(C[C@@H]1CCCN1C)C1(c2ccc(F)c(C(F)(F)F)c2)CC1	< 0.3 µM
COC(=O)N(C[C@H]1COCCN1C)C1(c2ccc(F)c(C(F)(F)F)c2)CC1	< 0.3 µM
COC(=O)N(C[C@@H]1COCCN1)C1(c2ccc(F)c(C(F)(F)F)c2)CC1	< 1 µM
COC(=O)N(C1CNC1)C1(c2ccc(F)c(C(F)(F)F)c2)CC1	< 1 µM
COC(=O)N(CC(C)(C)NC(C)=O)C1(c2ccc(F)c(C(F)(F)F)c2)CC1	< 1 µM
Fc1ccc(C2(NC[C@@H]3CCCN3)CCC2)cc1C1CC1	< 1 µM
CS(=O)(=O)N(C[C@H]1CCCN1)C1(c2ccc(F)c(C(F)(F)F)c2)CC1	< 1 µM
NC1(CNC2(c3ccc(F)c(C(F)(F)F)c3)CC2)CC1	< 0.3 µM
Fc1ccc(C2(NC[C@H]3CCCN3)CCC2)cc1C(F)(F)F	< 1 µM

---

system_tested: erythrocyte KCa3.1 channels (Homo sapiens (Human))
assay_summary: Erythrocyte KCa3.1 assay
Format: cell-based
run_conditions: human erythrocytes, A23187-activated KCa3.1; read-out: RBC K (in vitro) Human IC50 (μM) Potency category
Item-by-item account of IC50
measured_property: IC50

molecule	result_value
COC(=O)N(C[C@]1(C)CCCN1)C1(c2ccc(F)c(C(F)(F)F)c2)CC1	< 0.3 µM
COC(=O)N(CC1CCN1C)C1(c2ccc(F)c(C(F)(F)F)c2)CC1 (stereo not shown)	< 0.3 µM
Fc1ccc(C2(N(CC3CC3)C3CNC3)CC2)cc1C(F)(F)F	< 0.3 µM
N[C@H]1CCC[C@@H]1NC1(c2ccc(F)c(C(F)(F)F)c2)CC1	< 1 µM
COC(=O)N(C[C@@H]1COCCN1C)C1(c2ccc(F)c(C(F)(F)F)c2)CC1	< 0.3 µM
COC(=O)N(CC(C)(C)N)C1(c2ccc(F)c(C(F)(F)F)c2)CC1	< 0.3 µM
COC(=O)N(C[C@@H]1CCCN1)C1(c2ccc(F)c(C(F)(F)F)c2)CC1	< 0.3 µM
COC(=O)N(CC(C)(C)N)C1(c2cc(Cl)ccc2F)CCC1	< 1 µM
COC(=O)N(CC1CCN1)C1(c2ccc(F)c(C(F)(F)F)c2)CC1 (stereo not shown)	< 0.3 µM
FC(F)(F)Oc1cccc(C2(NC[C@@H]3CCCN3)CCC2)c1	< 1 µM
FC(F)(F)Oc1cccc(C2(NC[C@H]3CCCN3)CCC2)c1	< 1 µM
CC(C)OC(=O)N(C[C@@H]1CCCN1)C1(c2ccc(F)c(C(F)(F)F)c2)CC1	< 0.3 µM
COC(=O)N(C[C@@H]1CCCN1)C1(c2cc(C(F)(F)F)ccc2F)CCC1	< 1 µM
CC(C)(N)CNC1(c2cccc(Cl)c2)CCC1	< 0.3 µM
COC(=O)N(C[C@H]1CCCN1)C1(c2ccc(F)c(C(F)(F)F)c2)CCC1	< 0.3 µM
COC(=O)N(C[C@H]1CCCN1)C1(c2ccc(F)c(C(F)(F)F)c2)CC1	< 0.3 µM
CC(C)(N)CNC1(c2ccc(F)c(C(F)(F)F)c2)CCC1	< 0.3 µM
COC(=O)N1CC(N(C(=O)OC)C2(c3ccc(F)c(C(F)(F)F)c3)CC2)C1	< 0.3 µM
COC(=O)N(CC1(N)CC1)C1(c2ccc(F)c(C(F)(F)F)c2)CC1	< 0.3 µM
CC(C)(O)CN(CC1CCN1)C1(c2ccc(F)c(C(F)(F)F)c2)CC1 (stereo not shown)	< 0.3 µM
COC(=O)N(C[C@@H]1CCCN1)C1(c2cccc(C(F)(F)F)c2)CCC1	< 0.3 µM
COC(=O)N(CC(C)(C)N)C1(c2cccc(C(F)(F)F)c2)CC1	< 0.3 µM

---

system_tested: erythrocyte KCa3.1 channels (Homo sapiens (Human))
assay_summary: Erythrocyte KCa3.1 assay
Format: cell-based
run_conditions: human erythrocytes, A23187-activated KCa3.1; read-out: RBC K (in vitro) Human IC50 (μM) Potency category
Item-by-item account of IC50

smiles_data	IC50
COC(=O)N(C[C@@H]1CCCN1)C1(c2cc(F)cc(C(F)(F)F)c2)CCC1	< 0.3 µM
N[C@H]1CCC[C@H]1NC1(c2ccc(F)c(C(F)(F)F)c2)CC1	< 0.3 µM
CC(C)(N)CNC1(c2ccc(F)c(C(F)(F)F)c2)CC1	< 0.3 µM

---

system_tested: erythrocyte KCa3.1 channels (Homo sapiens (Human))
assay_summary: Erythrocyte KCa3.1 assay
Format: cell-based
run_conditions: human erythrocytes, A23187-activated KCa3.1; read-out: RBC K (in vitro) Human IC50 (μM) Potency category
measured_property: IC50

molecule	result_value
CN1CCC[C@H]1CN(C1(c2ccc(F)c(C(F)(F)F)c2)CC1)S(C)(=O)=O	< 0.3 µM
COC(=O)N(C[C@H]1COCCN1)C1(c2ccc(F)c(C(F)(F)F)c2)CC1	< 1 µM
COC(=O)N(C[C@@H]1CCCN1)C1(c2cccc(OC(F)(F)F)c2)CCC1	< 0.3 µM
COC(=O)N(CC(C)(C)N)C1(c2ccc(F)c(OC(F)(F)F)c2)CC1	< 0.3 µM
COC(=O)N(C[C@H]1CCCN1)C1(c2cccc(C(F)(F)F)c2)CCC1	< 0.3 µM
COC(=O)N(CC1CCN1)C1(c2ccc(F)c(OC(F)(F)F)c2)CC1 (centres unmarked)	< 0.3 µM
FC(F)(F)c1cccc(C2(NC[C@@H]3CCCN3)CCC2)c1	< 1 µM
COC(=O)N(CCN(C)C)C1(c2ccc(F)c(C(F)(F)F)c2)CC1	< 1 µM
COC(=O)N(CC(C)(C)N)C1(c2cc(C(F)(F)F)c(F)cn2)CC1	< 1 µM
COC(=O)N(C[C@H]1CCCN1)C1(c2cccc(Cl)c2)CCC1	< 0.3 µM
COC(=O)N(CCN)C1(c2ccc(F)c(C(F)(F)F)c2)CC1	< 1 µM

Data provenance is patent US20240034717A1.
